Each recorded value in this set is attributed to ChEMBL document CHEMBL4265942.

In this section we review reported pIC50 values for a set of compounds.
- Tested on: NCI-H1975
- Test summary: Antiproliferative activity against human NCI-H1975 cells assessed as inhibition of cell growth after 72 hrs by sulforhodamine B assay
- Format: functional, cell-based
- Assay conditions: NCI-H1975, 72 h
pIC50: −log10 of the molar value.

Query smiles: CCCCCC[C@@H](C)C[C@@H](C)/C=C/C(=O)N[C@H]1C[C@@]2(O[C@H]1O)[C@@H]1O[C@@H]1[C@](O)(CC(C)=O)[C@@H]1O[C@@H]12
pIC50: 5.43
//
Query smiles: CCCCCC[C@@H](C)C[C@@H](C)/C=C/C(=O)N[C@H]1C[C@@]2(O[C@@H]1OC)[C@@H]1O[C@@H]1[C@](O)(CC(C)=O)[C@@H]1O[C@@H]12
pIC50: 5.32
//
Query smiles: CCCCCC[C@@H](C)C[C@@H](C)/C=C/C(N)=O
pIC50: 4.27
//
Query smiles: CCCCCC[C@@H](C)C[C@@H](C)/C=C/C(=O)N[C@@H]1C[C@@]2(O[C@@H]1O)[C@@H]1O[C@@H]1[C@](O)(CC(C)=O)[C@@H]1O[C@@H]12
pIC50: 5.47
